Ref: paper PMC2850574

- SUBJECT OF TEST: SecA-Cys-256 (Escherichia coli, UniProt P10408, C885S/C887S/C896S/C98S/T256C)
- ASSAY METHOD TEXT: Signal peptide binding to SecA-Cys-256 by fluorescence anisotropy
Ends that are not written are not given here.
MEASURED PROPERTY: Kd (nM)

MKQSTIALALLPLLFTPVTKAC-NH2 [SP22] = 1100

----------
- SUBJECT OF TEST: IAEDANS-labeled SecAΔ11-Cys-190 (E. coli) (UniProt P10408)
MEASURED PROPERTY: Kd (nM)

IAEDANS-labeled SecAΔ11-Cys-190 (from UniProt P10408 9-836) (natural protein) = 230

----------
- SUBJECT OF TEST: SecAΔ11-Cys-190 (Escherichia coli, UniProt P10408, C885S/C887S/C896S/C98S/N190C)
- ASSAY METHOD TEXT: Binding of SP22 to monomeric SecAΔ11-Cys-190 by FRET titration
Ends that are not written are not given here.
MEASURED PROPERTY: Kd (µM)

MKQSTIALALLPLLFTPVTKAC-NH2 [SP22] = 3.06
